src = paper PMC12040169

This listing pairs molecules with measured viability at 28.5 h, 10 µM.
test: in vitro; details: human, hela cells, % viability
Give just the numeric value; % need not be written.

INPUT: Look up viability at 28.5 h, 10 µM for this molecule: CC(=O)Nc1ccc(-c2ccc(C(=O)NCc3ccc(OC(F)(F)F)cc3)cn2)cc1 [CBK158830]
OUTPUT: 98.6

INPUT: Entry CS(=O)(=O)NC[C@H]1O[C@@H](Cc2nc(-c3ccc(F)cc3)no2)[C@H](O)[C@@H]1O [CBK288906] please
OUTPUT: 95.3

INPUT: Entry CC1CCCC(C)N1S(=O)(=O)c1ccc(NC(=O)CCn2cnc3ccccc3c2=O)cc1 (centres unmarked) [CBK267643] please
OUTPUT: 95.5

INPUT: Entry O=C(O)c1ccc(CSc2nnc(-c3ccccc3)n2Cc2ccccc2)cc1 [CBK265013] please
OUTPUT: 114

INPUT: Entry CCCc1cc(O)nc(SC(C)C(=O)N2CCOCC2)n1 (centres unmarked) [CBK305030] please
OUTPUT: 86

====

assay: in vitro; settings: human, hela cells, % viability
This listing pairs molecules with measured viability at 28.5 h, 10 µM.
Give just the numeric value; % need not be written.

Study these solved cases before continuing.
Molecule	Observed Property	Reported
CC(Oc1cccc(Cl)c1)n1cnnc1 (stereo not shown)	viability at 28.5 h, 10 µM	100
CC(C)C(=O)NC(c1ccc(C(C)C)cc1)c1cc([N+](=O)[O-])c2cccnc2c1O (stereo not shown)	viability at 28.5 h, 10 µM	103
Cc1ccc(-c2ncc(OCCn3ccnc3)nc2N)cc1C	viability at 28.5 h, 10 µM	102
COc1ncc(-c2nccnc2N[C@H](C)c2ccccc2)c(OC)n1	viability at 28.5 h, 10 µM	83.7
CCCCN(C)S(=O)(=O)c1ccc(C(C)(C)CC)cc1	viability at 28.5 h, 10 µM	89.9
COc1ccc(Oc2nccnc2N2CCN(Cc3ccc(Cl)c(Cl)c3)CC2)cc1OC [CBK083038T]	viability at 28.5 h, 10 µM	91.8
Cc1csc2c(C3CCN(C(=O)c4ccn(C)n4)CC3)nc(C)n12	viability at 28.5 h, 10 µM	105
FC(F)(F)c1nc2ccccc2nc1SCCc1ccccn1	viability at 28.5 h, 10 µM	109

INPUT: Look up viability at 28.5 h, 10 µM for this molecule: N#Cc1ccc(Cn2cnc(NC(=O)c3cnccn3)n2)cc1
OUTPUT: 88.5

INPUT: Entry CC(NC(=O)CCC(=O)O)C12CC3CC(CC(C3)C1)C2 (stereo not shown) please
OUTPUT: 97.9

INPUT: Entry S=C(Nc1ccc(Nc2ccccc2)cc1)N1CCN(C/C=C/c2ccccc2)CC1 please
OUTPUT: 102

INPUT: Entry O=C(Nc1ccc2nc(-c3ccc(-c4nc5ccc(NC(=O)c6cccc7ccccc67)cc5[nH]4)cc3)[nH]c2c1)c1cccc2ccccc12 please
OUTPUT: 120

INPUT: Entry COc1ccc(CCNC(=O)c2cnc3scc(C)n3c2=O)cc1 please
OUTPUT: 103

INPUT: Entry Cc1cn(S(=O)(=O)c2ccc(Cl)cc2)cn1 please
OUTPUT: 113

INPUT: Entry Cn1c(=O)[nH]c(=O)c2c(-c3ccccc3)ccnc21 please
OUTPUT: 72

INPUT: Entry S=C(NCCCN1CCOCC1)Nc1cccc(Cl)c1 please
OUTPUT: 95

INPUT: Entry CSC1CCC(N(C)C(=O)NCCc2cn3cccc(C)c3n2)C1 (stereo not shown) please
OUTPUT: 84.5

INPUT: Entry CCOc1ccccc1-c1ccccc1NC(=O)c1cc(=O)n(C)c2ccccc12 please
OUTPUT: 100

INPUT: Entry COc1ccccc1Cn1nc2nnc(-c3ccccc3)c(-c3ccccc3)n2c1=O please
OUTPUT: 88.6

====

assay: in vitro; settings: human, hela cells, % viability
# note: exactly 90% is not below, so it is f; use t for viability at 28.5 h, 10 µM strictly under it

INPUT: Report whether reported viability at 28.5 h, 10 µM is lower than 90% (strictly) for CCOC(=O)c1cnc(NS(=O)(=O)c2cccc(Cl)c2C)nc1C
OUTPUT: f

INPUT: Entry Clc1cccc(-c2cncc(N3CCN(c4ccncc4)CC3)n2)c1 please
OUTPUT: f

INPUT: Entry CSCCC(=O)Nc1ccc2c(ccn2Cc2ccccc2)c1 please
OUTPUT: t

INPUT: Entry O=C(NCCCc1ccccc1Cl)c1ccc(=O)n(CC(=O)N2CCCCC2)c1 please
OUTPUT: t

INPUT: Entry CN1CCN(CC(=O)Nc2ccc(OCc3ccccc3)cc2)CC1 please
OUTPUT: f

INPUT: Entry c1ccc2cc(-c3cnc(N4CCOCC4)c4nccn34)ccc2c1 please
OUTPUT: f

INPUT: Entry COC(=O)C1CC2CCC1(C)CC21NC(=O)c2ccccc2N1 (stereo not shown) please
OUTPUT: f

====

assay: in vitro; conditions: human, hela cells, % viability
This listing pairs molecules with measured viability at 28.5 h, 10 µM.
Give just the numeric value; % need not be written.

Molecule	viability at 28.5 h, 10 µM (%)
Cc1cc(C)n(-c2ccc(C(=O)NCC3(C)COC3)cc2)n1	92.1
CNC(=O)CCc1ccccc1NC(=O)NCCSc1ncn[nH]1	89.9
CC(=O)[C@H]1C[C@@H](CC(=O)N2CCN(c3ccc(C(F)(F)F)cc3)CC2)C1(C)C	93.6
Cc1c(O)cccc1Nc1cc(-c2cccc(N(C)C)c2)ncn1	94.3
CCc1ccc(C2CC(=O)c3c(ccc4ccccc34)N2)cc1 (stereo not drawn)	93.8
COc1ccc(Br)cc1/C=N/NC(=O)C1CC(c2ccccc2)(c2ccccc2)C1	88.8
COCCN(Cc1ccncc1)C(=O)c1cnc2ccnn2c1C	92.3
O=C(NCc1ccco1)c1ccc2c(=O)n(-c3ccccc3)c(=O)[nH]c2c1	83.7

Consider the record given below.
INPUT: Look up viability at 28.5 h, 10 µM for this molecule: COc1cccc([C@H]2CN(C(=O)c3ccccc3)[C@@H]3CCN(Cc4cccs4)C[C@H]23)c1
OUTPUT: 102

====

experiment: in vitro; conditions: human, hela cells, % viability
Observed Property: viability at 28.5 h, 10 µM (%)
Give just the numeric value; % need not be written.

INPUT: Look up viability at 28.5 h, 10 µM for this molecule: COc1ccc(C2CC(c3ccc(NS(C)(=O)=O)cc3)=NN2C(=O)CCCC(=O)O)cc1 (stereo not drawn)
OUTPUT: 116

INPUT: Entry CN(C(=O)[C@H]1CCCC[C@H]1C(=O)O)C1CCS(=O)(=O)C1 (stereo partly drawn) please
OUTPUT: 106

INPUT: Entry N=c1n(CCN2CCCCC2)c2ccccc2n1CC(O)c1cccs1 (stereo not drawn) [CBK262908C] please
OUTPUT: 94.9

INPUT: Entry COc1nccnc1-c1ccc(Cl)c(Cl)c1 please
OUTPUT: 98.7

INPUT: Entry C=CCOc1ccc(CNc2cccc(C(=O)O)c2)cc1OC please
OUTPUT: 98.5

====

test: in vitro; conditions: human, hela cells, % viability
Observed Property: viability at 28.5 h, 10 µM (%)
Give just the numeric value; % need not be written.

Compound	Reported
Cc1ccc2oc([C@H]3CCN(S(C)(=O)=O)C3)nc2c1	97.2
C/C(=N\NC(=O)CSCc1ccccc1Br)c1cccc([N+](=O)[O-])c1	95.9
c1cnc(OC2CCN(CC3CCCCC3)CC2)c(OC2CCCCC2)n1 [CBK082879T]	101
Cc1cc(C)n(CC(=O)N[C@H]2CC[C@H]2N)c(=O)n1	91.9
COc1ccc(C2CCN(CC(=O)NC3CCCC3)CC2)cc1	98
O=C(O)c1ccc(NC2=NS(=O)(=O)c3ccccc32)cc1	84.4
CC1Oc2ccccc2OC1C(=O)Nc1ccc([N+](=O)[O-])cc1Cl (centres unmarked)	85.8
O=C(O)CSc1nnc(-c2ccco2)n1-c1ccccc1	85.9

INPUT: Look up viability at 28.5 h, 10 µM for this compound: CC1(CNC(=O)c2cn3cc(Cl)ccc3n2)COC1
OUTPUT: 91.4

INPUT: Entry c1ccc(Cc2nn3c(COc4ccccc4)nnc3s2)cc1 please
OUTPUT: 88

INPUT: Entry N#Cc1cccnc1N1CC(C(=O)O)C2(CCC2)C1 (centres unmarked) please
OUTPUT: 93.7

INPUT: Entry O=C(O)CSCC(=O)N1CCN(c2ccc(F)cc2)CC1 please
OUTPUT: 98

INPUT: Entry Cc1cc(C)c(S(=O)(=O)Nc2nnc(C(F)(F)F)s2)c(C)c1 please
OUTPUT: 99.7

INPUT: Entry COc1ccc2[nH]cc(CCNC(=O)c3ccc(-c4cccc(N(C)C)c4)nc3N(C)C(C)=O)c2c1 please
OUTPUT: 101

INPUT: Entry CC(Sc1nc2ccccc2c(=O)n1C1CC1)C(=O)N1CCOCC1 (centres unmarked) please
OUTPUT: 79.5

INPUT: Entry O=C(Nc1ccc(F)cc1)OCC1COc2ccccc2C1 (centres unmarked) please
OUTPUT: 85.5

INPUT: Entry O=C(NC(c1ccc(Cl)cc1)c1cnccn1)C1CCN(Cc2ccc(Oc3ccccc3)cc2)CC1 (centres unmarked) please
OUTPUT: 108

INPUT: Entry O=C(NCCO)c1nc(NCCO)c2ccccc2n1 please
OUTPUT: 110

INPUT: Entry CC(C)N1CCC(CNC(=O)Cn2ccc3ccc(F)cc32)CC1 please
OUTPUT: 89.9

INPUT: Entry Nc1nc(CN2C(=O)c3ccccc3C2=O)n[nH]1 please
OUTPUT: 105
